Provenance of the data: patent US20140162945A1

# experimental_target: human GLP-1 receptor (human, UniProt P43220 24-463)
# Sequence (P43220 24-463): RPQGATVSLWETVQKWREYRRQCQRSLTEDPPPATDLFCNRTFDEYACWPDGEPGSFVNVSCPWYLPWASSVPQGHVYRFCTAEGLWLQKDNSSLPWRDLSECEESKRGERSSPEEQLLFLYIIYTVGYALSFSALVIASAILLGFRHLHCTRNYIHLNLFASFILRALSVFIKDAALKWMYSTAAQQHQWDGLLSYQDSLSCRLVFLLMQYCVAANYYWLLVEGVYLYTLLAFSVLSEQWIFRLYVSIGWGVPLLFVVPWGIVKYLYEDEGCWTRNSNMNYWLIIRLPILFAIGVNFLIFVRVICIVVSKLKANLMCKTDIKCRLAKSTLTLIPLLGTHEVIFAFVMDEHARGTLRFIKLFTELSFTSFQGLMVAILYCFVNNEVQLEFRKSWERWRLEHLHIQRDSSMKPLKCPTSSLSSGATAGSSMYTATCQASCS
# assay_info: cell-based or functional assay
Where no end group is shown, it is not given here. [ ]: non-standard residue; d: D form. The star is where a group is joined. Phe(4-NO2) = N[C@@H](Cc1ccc([N+](=O)[O-])cc1)C(=O)O; Phe(4-F) = N[C@@H](Cc1ccc(F)cc1)C(=O)O; Palmitoyl = CCCCCCCCCCCCCCCC(=O)*; Met(O) = CS(=O)CC[C@H](N)C(=O)O; Nle = CCCC[C@H](N)C(=O)O; Aib = CC(C)(N)C(=O)O

{"binder": "Y[Aib]EGTFTSDYSIYMEKEAVREFIAWLVK(Palmitoyl)G-NH2 [Analog 046]", "EC50, GLP-1 Receptor cAMP induction": "6.52 nM"}
{"binder": "Y[Aib]EGTFTSDYSI[Phe(4-F)][Met(O)]EKIHQQDFVNWLLAQ-NH2 [Analog 004]", "EC50, GLP-1 Receptor cAMP induction": "926 nM"}
{"binder": "Y[Aib]EGTFTSDYSIY[Nle]EKIHQQDFVNWLVRQ-NH2 [Analog 021]", "EC50, GLP-1 Receptor cAMP induction": "217 nM"}
{"binder": "Y[Aib]EGTFTSDYSIAMEKIHQQDFVNWLLAQ-NH2 [Analog 002]", "EC50, GLP-1 Receptor cAMP induction": "995 nM"}
{"binder": "Y[Aib]EGTFTSDYSIF[Met(O)]EKIHQQDFVNWLLAQ-NH2 [Analog 007]", "EC50, GLP-1 Receptor cAMP induction": "836 nM"}
{"binder": "Y[Aib]EGTFTSDYSI[Phe(4-NO2)]MEKIHQQDFVNWLLAQ-NH2 [Analog 016]", "EC50, GLP-1 Receptor cAMP induction": "1670 nM"}
{"binder": "Y[Aib]EGTFISDYSIA[Nle]EKIHQQDFVNWLLAQ-NH2 [Analog 010]", "EC50, GLP-1 Receptor cAMP induction": "> 2000 nM"}
